# Tested on: Plasmodium falciparum
# assay_protocol: Confirmatory screen in NF54 pLDH assay, in single point, at 2uM, 72h
# Format: functional, Erythrocyte
# particulars: timepoint 72 hour
About 410 (8.5%) of roughly 4,800 compounds showed an effect of 50% or more. The sample holds strong results, similar compounds and a random draw of the others, so the mix is not that of the screen.
measurement_label: % Inhibition (%)
Answer in %, number only, no unit symbol.

line_notation=CN(C)C(=O)NCC1(NC(=O)N(C)C)CCC1 units=% reading=5
line_notation=O=C(Nc1ccn(Cc2cccnc2)n1)c1ccc(-c2ccccc2F)o1 units=% reading=6
line_notation=COC[C@H]1[C@H](NC(=O)c2ncc(F)cc2F)[C@H]2CCO[C@H]21 units=% reading=-17
line_notation=CCN1C(=O)CCN(C(=O)c2ccnn2C)CC12CCOCC2 units=% reading=3

Task item: Item O=C(CCc1ccccc1)Nc1ccc(-n2nn[nH]c2=O)cc1 has what recorded % Inhibition?
Reply: 15

Task item: Item CC(C)(NC(=O)CC1(O)CCCCC1)C(=O)Nc1ccccc1 has what recorded % Inhibition?
Reply: 5

----------
# Tested on: Plasmodium falciparum
# assay_protocol: Confirmatory screen in NF54 pLDH assay, in single point, at 2uM, 72h
# Type: functional, Erythrocyte
# particulars: timepoint 72 hour
Out of some 4,800 compounds screened, about 410 (8.5%) showed an effect of 50% or more. This is one part of a sample in which strong results are shown more often than they occur.
measurement_label: % Inhibition (%)
Answer in %, number only, no unit symbol.

Field: example entries. Status: answers known.
compound="CC1CCN(C(=O)NCC2CCC(F)(F)CC2)CC1n1ccnc1 (configuration not stated)" assay_target="Plasmodium falciparum" measurement_label="% Inhibition" units=% reading=12
compound=c1ccc(C(c2ccccc2)N2CCN(c3nn4cnnc4c4ccccc34)CC2)cc1 assay_target="Plasmodium falciparum" measurement_label="% Inhibition" units=% reading=65
compound=CC(C)[C@H](NC(=O)c1ccc(Cl)cc1Cl)C(=O)O assay_target="Plasmodium falciparum" measurement_label="% Inhibition" units=% reading=-5
compound=O=C(c1cccc(C(=O)N2CCN(C(c3ccccc3)c3ccccc3)CC2)c1)N1CCN(C(c2ccccc2)c2ccccc2)CC1 assay_target="Plasmodium falciparum" measurement_label="% Inhibition" units=% reading=26
compound=Cc1cc(OC[C@@H](O)CNC(C)(C)CC(C)(C)C)cc(C)c1Cl assay_target="Plasmodium falciparum" measurement_label="% Inhibition" units=% reading=57
compound=O=C(O)c1cc(-c2ccc3c(c2)OCCO3)nc2c(Br)cc(Br)cc12 assay_target="Plasmodium falciparum" measurement_label="% Inhibition" units=% reading=3
compound=CC(C)C(=O)Nc1ccc(-c2cc(-c3ccc(NC(=O)C(C)C)cc3)nc(-c3ccncc3)n2)cc1 assay_target="Plasmodium falciparum" measurement_label="% Inhibition" units=% reading=42
compound=Cc1cc(C(=O)Nc2cc(C)nn2C)nc(N(C)C)n1 assay_target="Plasmodium falciparum" measurement_label="% Inhibition" units=% reading=8
compound=Cc1c(CN(C)C(=O)Cn2ncc(Br)c2C)cnn1C assay_target="Plasmodium falciparum" measurement_label="% Inhibition" units=% reading=4
compound=O[C@](C#CCN1CCOCC1)(c1ccccc1)C1CC1 assay_target="Plasmodium falciparum" measurement_label="% Inhibition" units=% reading=14

Task item: Given the entry O=C(Cn1nc(C2CC2)nc1C1CC1)N1CCOCC1 , what % Inhibition was observed with Plasmodium falciparum?
Reply: 11

Task item: Given the entry CS(=O)(=O)N1CC[C@H](CC(=O)N2CCN(c3ccc(F)cc3)CC2)C1 , what % Inhibition was observed with Plasmodium falciparum?
Reply: -21
